# Tested on: OVCAR-3 ovarian
# measurement.description: NCI tumour cell line growth inhibition, 48 h; in the data active = GI50 below about 0.43 µM; inactive = the rest
API: response.call in active, inactive

- compound: "COCCOCCOCCOCCOC(=O)OC[n+]1ccc(NC(=NCCCCCCOc2ccc(Cl)cc2)NC#N)cc1"
  cat: "inactive"
- compound: "COc1ccc(C2CC(c3ccc(N(C)C)cc3)=NN2c2ccc(S(N)(=O)=O)cc2)cc1 (stereo unspecified)"
  cat: "inactive"
- compound: "O=C(c1ccco1)c1c(C(F)(F)F)n([O-])c2cc(F)c(F)cc2[n+]1=O"
  cat: "active"
- compound: "O=C(O)CCCc1ccccc1"
  cat: "inactive"
- compound: "COc1cc(C(=O)/C=C/c2c(C(F)(F)F)nc3ccccn23)cc(OC)c1OC"
  cat: "inactive"

q: Hi team, can someone confirm the assay call for `C=C1C(=O)O[C@H]2[C@H]1CC/C(COC(=O)NCc1c[nH]c3ccc(F)cc13)=C\CC[C@@]1(C)O[C@@H]21` ?
a: inactive

q: Record lookup: outcome of this test for `COC1=C(OC)C(=O)C(CCCCCCCCCCO)=C(C)C1=O` ?
a: inactive

q: Could you kindly confirm the outcome this assay logged for `c1ccc2c(CNCCN3CCNCC3)c3ccccc3c(CNCCN3CCNCC3)c2c1` ?
a: inactive

q: Please indicate how the test categorized C=CCN(CC=C)C(=O)[C@H](CC)[C@@H]1CC[C@@H](C)[C@@H]([C@H](C)[C@@H](O)[C@@H](C)C(=O)[C@H](CC)C2O[C@]3(C=C[C@@H](O)[C@]4(CC[C@@](C)([C@H]5CC[C@](O)(CC)[C@H](C)O5)O4)O3)[C@H](C)C[C@@H]2C)O1 (stereo partly specified) .
a: inactive

q: Any idea what this test logged for `NCc1ccc(-c2nc(-c3ccc(Cl)c(O)c3)c(-c3ccncc3)[nH]2)cc1` ?
a: inactive

q: For `Nc1nc2ccccc2c2c1S(=O)(=O)c1ccc(Cl)cc1C2=O` , what call appears in the results of this test?
a: inactive

q: How was COc1ccc(COc2cc3oc(=O)c4cc(C(C)O)ccc4c3cc2OC)cc1 (stereo unspecified) classified in this test?
a: inactive

q: Hi, do you know how `c1ccc(C2CCCCC2)c(OCCCCCN2CCNCC2)c1` came out in this test?
a: inactive

q: Status in this test for COc1cc(/C=C/C(=O)O[C@H]2[C@H](O[C@@H]3O[C@@H](C)[C@H](O)[C@@H](O)[C@H]3O)[C@@H](O)[C@H](OCCc3ccc(O)c(O)c3)O[C@@H]2COC2OCC(O)(CO)C2O)ccc1O (stereo partly specified) ?
a: inactive

q: // outcome(item) with item = `COc1ccc(S(=O)(=O)N2CCNCC2)cc1OC`
a: inactive

q: Field: outcome | Entry: `N#Cc1cc2c(cc1Cl)Sc1nnc(Nc3cccc4ccccc34)n1S2(=O)=O`
a: inactive

q: State the result this test recorded for N#CC1C(N)=NNC12Nc1ccccc1S2 (stereo unspecified) .
a: inactive

q: Test call, this compound: `Clc1ccc([I+]c2ccc(Cl)cc2Cl)c(Cl)c1`
a: inactive

====

# Test system: SNB-75 CNS
# measurement.description: NCI tumour cell line growth inhibition, 48 h
property.measured: TGI

- molecule: "COc1ccc(S(=O)(=O)N2CCNCC2)cc1OC"
  property.measured: "TGI"
  value: "> 100 µM"
- molecule: "COC(=O)c1cc([N+](=O)[O-])cc([N+](=O)[O-])c1Cl"
  property.measured: "TGI"
  value: "5.07 µM"
- molecule: "CC1=NNC(=S)NCCCN2CCN(CCCNC(=S)NN=C(C)C=NNC(=S)NCCCN3CCN(CCCNC(=S)NN=C1)CC3)CC2"
  property.measured: "TGI"
  value: "> 100 µM"
- molecule: "Cc1ccc(S(=O)(=O)N2CCN(S(=O)(=O)c3ccc(C)cc3)CCN(S(=O)(=O)c3ccc(C)cc3)Cc3cc(Br)c(Br)cc3CN(S(=O)(=O)c3ccc(C)cc3)CC2)cc1"
  property.measured: "TGI"
  value: "> 100 µM"
- molecule: "C=C1C2CCC3(CCC4C5(C)CCCC4(C=[N+](CCO)C5)C3C2)C1O (stereo unspecified)"
  property.measured: "TGI"
  value: "> 100 µM"
- molecule: "Cc1ccc(S(=O)(=O)NC(=O)OC23COCN2COC3)cc1"
  property.measured: "TGI"
  value: "> 100 µM"

q: Indicate its recorded TGI; the molecule in question is N#Cc1c(-c2ccccc2)cc(-c2ccccc2)n(C2OCC(O)C(O)C2O)c1=S (stereo unspecified)
a: 66.3 µM

q: Identify measured TGI associated with `BrCc1ccc(CBr)c2c1-c1c(CBr)ccc3ccc(CBr)c-2c13`
a: > 100 µM

q: Please report the measured TGI for `O=[N+]([O-])C(=C/c1cccc2ccccc12)/C(=C\c1cccc2ccccc12)[N+](=O)[O-]`
a: 21.8 µM

====

# System: KM12 colon
# measurement.description: NCI tumour cell line growth inhibition, 48 h
Reported TGI values for the following compounds.

- compound: "Cc1ccc(NC(=O)/C(C#N)=C/c2ccccc2)c(C)c1"
  value: "> 100 µM"
- compound: "C=C(CCC=C(C)C)C1CC=C(C)CC1 (stereo unspecified)"
  value: "52.6 µM"
- compound: "CC(=O)Nc1ccc(S(=O)(=O)NN(C)S(=O)(=O)c2ccc(C)cc2)cc1"
  value: "> 100 µM"
- compound: "COc1ccc(C2CC(c3ccc(N(C)C)cc3)=NN2c2ccc(S(N)(=O)=O)cc2)cc1 (stereo unspecified)"
  value: "> 100 µM"
- compound: "CC1SC(c2ccc(Cl)cc2)N(CCc2cccs2)C1=O (stereo unspecified)"
  value: "3.36 µM"
- compound: "O=c1n(-c2ccccc2)c(=O)n2c(-c3ccccc3)c(-c3ccccc3)n12"
  value: "> 100 µM"

q: Quote TGI reported for `COc1ccc2c(c1)C(=O)c1c-2c(=O)n(CCCN(C)C)c2cc(OC)c(OC)cc12` please.
a: 19.8 µM

q: Check the records and state TGI for `CC(=O)CC(=O)CCC(=O)Nc1cccc(C(F)(F)F)c1`
a: > 100 µM

q: Quickly give me recorded TGI for `COc1ccc(NC/C=C/C(=C/COC(C)=O)OC(C)=O)cc1`
a: 1.99 µM

q: Give a short answer stating reported TGI for O=C(Nc1ccc2[nH]c(C(=O)N3CC(CCl)c4ccc([N+](=O)[O-])cc43)cc2c1)c1cc2ccccc2o1 (stereo unspecified) .
a: > 1100 µM

q: // Input: `C[P+]1(c2ccccc2)CCCCC1` . Output its TGI only.
a: > 100 µM

q: # return recorded TGI for input `O=c1[nH]c(=S)[nH]c(-c2ccccc2)c1Cc1c(O)ccc2ccccc12`
a: > 100 µM

q: Using the record for `O=C1C=C(C2=C(C3=CC(=O)c4ccccc4C3=O)C(=O)c3ccccc3C2=O)C(=O)c2ccccc21` , state its measured TGI.
a: 30.8 µM

q: Determine its reported TGI: `O=C(NCCCCCCCN1CCCCCCC1)C(C1CCCCC1)C1CCCCC1`
a: 27.5 µM

q: Quote TGI reported for COC(=O)[C@@]1(NC(=O)C(CC(=O)OC(C)(C)C)NC(=O)OC(C)(C)C)C[C@H]1C (stereo partly specified) please.
a: > 100 µM

q: Return TGI (reported value) for this compound: `COC1=C(OC)[C@]2(OC)c3c(O)c(OC)c4c(c3O[C@@]23O[C@@H](c2ccccc2)CC=C3C1=O)[C@@H](OC)C[C@H](c1ccccc1)O4`
a: 3.12 µM

q: Entry `c1ccc(C2CCCCC2)c(OCCCCCN2CCNCC2)c1` needs its TGI filled in; supply it.
a: 4 µM

q: Report TGI, nothing else, for this compound: `N#Cc1cccc(Nc2ncc(-c3ccccc3)o2)c1`
a: > 25 µM

====

# reported TGI; entries follow
# Test system: 786-0 renal
# measurement.description: NCI tumour cell line growth inhibition, 48 h

- compound: "Nc1[nH]c(=O)[nH]c(=O)c1Cc1cccc(Cl)c1"
  TGI: "> 100 µM"
- compound: "O=C(Cc1ccccc1)C(c1ccccc1)S(=O)(=O)c1ccccc1 (stereo not given)"
  TGI: "> 100 µM"
- compound: "c1ccc2c(CNCCN3CCNCC3)c3ccccc3c(CNCCN3CCNCC3)c2c1"
  TGI: "23.4 µM"
- compound: "N#C/C(=C\\c1cc2ccc(N3CCC3)cc2oc1=O)C(=O)N(CC(=O)O)CC(=O)O"
  TGI: "> 100 µM"
- compound: "CCn1ccnc1C(=O)/C=C/c1ccc(CC(=O)Nc2ccc(F)cc2)cc1"
  TGI: "> 16.7 µM"
- compound: "CCN1C[C@]2(C)CC[C@H](OC)C34C5C[C@@H]6[C@@H](OC)C[C@@](OC)(C5[C@H]6OCc5ccccc5)C(C13)[C@H](OC(C)=O)[C@@H]42 (stereo not given in full)"
  TGI: "> 100 µM"
- compound: "C#CCNC(=O)NC(CCCCNC(=O)OCc1ccccc1)C(=O)OCc1ccccc1 (stereo not given)"
  TGI: "> 100 µM"
- compound: "O=S(=O)(NCCCNc1cc(-c2cn(-c3ccccc3)nc2-c2cccc(O)c2)ccn1)c1ccc(F)cc1"
  TGI: "6.23 µM"

q: Input `CC1=NNC(=S)NCCCN2CCN(CCCNC(=S)NN=C(C)C=NNC(=S)NCCCN3CCN(CCCNC(=S)NN=C1)CC3)CC2` , output reported TGI.
a: > 100 µM

q: Output measured TGI for this item: `O=C1/C(=C/c2ccccc2[N+](=O)[O-])COc2ccc(O)cc21`
a: 10 µM

q: Report TGI, nothing else, for this compound: `COc1cc(C(=O)/C=C/c2c(C(F)(F)F)nc3ccccn23)cc(OC)c1OC`
a: 3.42 µM

q: Tell me its TGI given N#C/C(=C1\OC(=N)C(c2ccc(Cl)cc2Cl)C1=O)c1ccc(Cl)cc1Cl (stereo not given) as the entry.
a: > 100 µM

q: Kindly indicate its recorded TGI. Item: NC(=O)CC(N)c1nn[nH]n1 (stereo not given)
a: > 100 µM

q: Return TGI (reported value) for this compound: COc1ccccc1C1c2cc3c(cc2OC(N2CCCC2)C1C)OCO3 (stereo not given)
a: 35.3 µM

q: Give reported TGI value for `CC(=O)CC(=O)CCC(=O)Nc1cccc(C(F)(F)F)c1`
a: > 100 µM

q: Given the compound `CCCCN(C)C(=O)C1=C(C)NC(C)=C(C(=O)N(C)CCCC)C1` , write its reported TGI.
a: > 100 µM

q: Provide TGI value for the following compound: O=c1ccn(/C=C/C(O)C(O)CO)c(=O)[nH]1 (stereo not given)
a: > 100 µM

q: Please give measured TGI of the following entry: `CCN(Cc1ccc(F)cc1)c1ccc(CO)c(C(F)(F)F)c1`
a: 26.2 µM

q: Complete the entry with TGI for COc1ccc(-n2c(C)nc3ccc(NC4OC(CO)C(O)C(O)C4O)cc3c2=O)cc1 (stereo not given)
a: > 100 µM

q: Give the reported TGI for this compound. `CCOC(=O)/C=C/C1(CCOC(C)=O)CCCCC1`
a: > 10 µM

q: In one line, give reported TGI of the entry `Cc1ccc(Cl)cc1-n1c(C)nc2c(cnn2-c2ccnc3c(C(F)(F)F)cccc23)c1=O` .
a: > 100 µM

q: Complete the entry with TGI for `C/C(N=NS(=O)(=O)c1ccc(C)cc1)=C1\C=CC=CN1O`
a: > 100 µM

q: Quick one: give measured TGI for CC(C)(C)c1cc(C(=O)O)c2c(c1)C(=O)OC2(c1ccccc1)c1ccccc1C(=O)O (stereo not given)
a: > 100 µM

q: Answer with reported TGI of `CNC(=O)N1N[C@H](c2ccccc2)[C@@H]1c1ccccc1`
a: > 100 µM

q: Give a short answer stating reported TGI for `c1ccc(C2CCCCC2)c(OCCCCCN2CCNCC2)c1` .
a: 4.27 µM

q: Query TGI for `CC(=O)[CH-]C(C)=O.CC(=O)[CH-]C(C)=O.CC(=O)[CH-]C(C)=O.[Ga+3]`
a: > 100 µM

q: Note down TGI recorded for N#Cc1c(-c2ccccc2)cc(-c2ccccc2)n(C2OCC(O)C(O)C2O)c1=S (stereo not given)
a: 49.1 µM

q: Give me measured TGI, please, for this compound: CCOC(=O)C(Cc1ccc(N(CCCl)CCCl)cc1)NC(=O)C(Cc1ccccc1)NC(C)=O (stereo not given)
a: > 0.399 µM

q: For the compound `NC(=O)c1sc2nc3ccccc3n2c1N` , give its reported TGI.
a: > 100 µM

q: Give the reported TGI for this compound. O=C(c1c(O)cc(O)cc1O)C1Cc2ccccc21 (stereo not given)
a: > 100 µM
